# Tested on: COLO 205
# ASSAY_NOTES: NCI tumour cell line growth inhibition, 48 h
The source made the active and inactive calls. Cut-off read from the data, not from the text of the source: active = GI50 up to about 1.1 µM and inactive = higher.
Return exactly one item of 1.0 = active, 0.0 = inactive

// below: answered compounds
input: Any idea what this test logged for CC(C)(C)c1ccc(O)c(C(O)c2ccncc2)c1 (stereo unspecified) ?
output: 0.0

input: Any idea what this test logged for COC(=O)[C@H]1C[C@H]1NC(=O)C(CC(=O)OCc1ccccc1)NC(=O)OCc1ccccc1 (stereo partly specified) ?
output: 0.0

input: Any idea what this test logged for CC(C)N(C(=O)C12C3C4C1C1C2C3C41C(=O)N(C(C)C)C(C)C)C(C)C (stereo unspecified) ?
output: 0.0

Please turn your attention to the following entry.
input: Any idea what this test logged for Cc1nc2ccccc2c(=O)n1/N=C(\N=N\c1ccccc1Cl)c1ccccc1Cl ?
output: 0.0

====

# System: XF498
# ASSAY_NOTES: NCI tumour cell line growth inhibition, 48 h
Active and inactive are the calls of the source. No stated cut-off is given here; in the data, active = GI50 up to about 1.1 µM and inactive = higher.
Return exactly one item of 1 (active), 0 (inactive)

input: Any idea what this test logged for CC(=O)OCC1OC(NC(=O)N(CCCl)N=O)C(OC(C)=O)C(OC(C)=O)C1OC(C)=O (stereo unspecified) ?
output: 0

input: Any idea what this test logged for O=P(O)(NCCCl)NCCCl [PALIFOSFAMIDE] ?
output: 0

More entries:
input: Any idea what this test logged for CN(C)CCCCN1CCc2c(n(C)c3ccccc23)C1=O ?
output: 0

input: Any idea what this test logged for Cc1cc(C)c2c(c1)CN1CN2Cc2cc(C)cc(C)c21 ?
output: 0

====

# System: OVCAR-5
# ASSAY_NOTES: NCI tumour cell line growth inhibition, 48 h
Calls of active or inactive are those of the source. Rule as the data show it: active = GI50 up to about 1.1 µM and inactive = higher.
Entries and their measured GI50 follow.

Examples from the recorded data:
input: Data request, read-out GI50, for Cc1nc2cc(/N=N/c3c(O)ccc4ccccc34)ccc2[nH]1
output: > 75.5 µM (inactive)

input: Data request, read-out GI50, for CC[C@@H]1OC2(C)CC(S(=O)(=O)c3ccccc3)CC1O2 (stereo partly specified)
output: > 100 µM (inactive)

input: Data request, read-out GI50, for COc1cc2ccc(C(=O)O)cc2cc1OC
output: > 100 µM (inactive)

input: Data request, read-out GI50, for O=C(/C=C\c1ccccc1-c1ccccc1)c1ccccc1
output: > 100 µM (inactive)

More entries:
input: Data request, read-out GI50, for [N-]=[N+]=C1C(=O)C2CC3CC(C2)CC1C3
output: > 100 µM (inactive)

input: Data request, read-out GI50, for Cn1c(=O)c2c(ncn2Cc2ccc(O)c([N+](=O)[O-])c2)n(C)c1=O
output: > 100 µM (inactive)

====

# Test system: CAKI-1
# ASSAY_NOTES: NCI tumour cell line growth inhibition, 48 h
Calls of active or inactive are those of the source. Rule as the data show it: active = GI50 up to about 1.1 µM and inactive = higher.
Return exactly one item of TRUE = active, FALSE = inactive

input: Any idea what this test logged for OCc1cc2c([nH]c3ccccc32)c(C(O)CO)n1 (stereo unspecified) ?
output: FALSE

input: Any idea what this test logged for Cc1cc(C)n(C(=O)C(C)Sc2nnc(SC(C)C(=O)n3nc(C)cc3C)s2)n1 (stereo unspecified) ?
output: FALSE

input: Any idea what this test logged for NC12Oc3cc(O)cc(O)c3C1(c1ccc(Cl)cc1)c1c(O)cc(O)cc1O2 (stereo unspecified) ?
output: FALSE

More entries:
input: Any idea what this test logged for C/C(=N\NC(=S)N1CCN(C2CCCCCC2)CC1)c1ccccn1 ?
output: TRUE

input: Any idea what this test logged for COc1ccc(-c2oc3cc(OC(C)=O)cc(OC(C)=O)c3c(=O)c2OC)cc1 ?
output: FALSE

input: Any idea what this test logged for CC1SC2=NC3=C(c4ccccc4C3=O)C(c3ccc(F)cc3)N2C1=O (stereo unspecified) ?
output: FALSE

input: Any idea what this test logged for COc1cc2c(cc1O)C1Cc3ccc(OC)c(O)c3C(C2)N1C (stereo unspecified) ?
output: FALSE

input: Any idea what this test logged for COC(=O)C1C(C(=O)OC)N(Cc2ccccc2)C(=O)N1Cc1ccccc1 (stereo unspecified) ?
output: FALSE

input: Any idea what this test logged for COc1ccc(/C(Cl)=C(\C=O)c2ccccc2)cc1OC ?
output: FALSE

input: Any idea what this test logged for COC(=O)[C@@H]1C[C@]2(Br)c3ccccc3N(S(=O)(=O)c3ccccc3)[C@@H]2N1C(=O)OC ?
output: FALSE

input: Any idea what this test logged for COCC1OC(OC2C3=C(C(C)C)CCC3(C)/C=C3\C(CCC3(O)COC)C(C)C2O)C(O)C2OC3OC12OC3(C)C1CO1 (stereo unspecified) ?
output: FALSE

input: Any idea what this test logged for C=C1CC(C)(COc2ccc3ccc(=O)oc3c2)OC1=O (stereo unspecified) ?
output: FALSE

input: Any idea what this test logged for COC(=O)C(=O)C(C(=O)C(=O)Nc1cccc(OC)c1)c1nc2ccc(Cl)cc2nc1O (stereo unspecified) ?
output: FALSE

input: Any idea what this test logged for CC(C)CC(C(N)=O)C(=O)NC(Cc1ccccc1)NC(=O)CNC(=O)C(C)NC(=O)C(N)Cc1ccc(O)cc1 (stereo unspecified) ?
output: FALSE

input: Any idea what this test logged for c1cc2c(s1)-c1sccc1C21OCCO1 ?
output: FALSE

input: Any idea what this test logged for O=C1Cc2ccccc2N1/N=C\c1ccc([N+](=O)[O-])cc1 ?
output: FALSE
